Ref: the RNAGym collection of RNA variant scans (doi:10.7554/elife.80360)

B1: Twister Ribozyme (parent)
chain: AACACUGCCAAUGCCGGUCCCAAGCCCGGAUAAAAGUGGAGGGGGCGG

# Variants of: B1
# method: self-cleavage, relative activity (ratio to wild type); higher = more cleavage; co-transcriptional
Mark 1 for reported self-cleavage of 0.6 or greater; mark 0 for anything smaller.

Completed entries (count: 5):
Does the reported self-cleavage for C26A C27G fall at or above the 0.6 mark? 0

Consider next the variant A34G G47U in the same way. 0

Consider next the variant A1U A30U in the same way. 0

Consider next the variant G7C C15U in the same way. 0

Consider next the variant C5U G38A in the same way. 1

Next:
Does the reported self-cleavage for C5U A33C fall at or above the 0.6 mark? 1

Consider next the variant C5A G43A in the same way. 0
